- TARGET_OR_SYSTEM: UniProtKB P18031
- Sequence (P18031 whole entry): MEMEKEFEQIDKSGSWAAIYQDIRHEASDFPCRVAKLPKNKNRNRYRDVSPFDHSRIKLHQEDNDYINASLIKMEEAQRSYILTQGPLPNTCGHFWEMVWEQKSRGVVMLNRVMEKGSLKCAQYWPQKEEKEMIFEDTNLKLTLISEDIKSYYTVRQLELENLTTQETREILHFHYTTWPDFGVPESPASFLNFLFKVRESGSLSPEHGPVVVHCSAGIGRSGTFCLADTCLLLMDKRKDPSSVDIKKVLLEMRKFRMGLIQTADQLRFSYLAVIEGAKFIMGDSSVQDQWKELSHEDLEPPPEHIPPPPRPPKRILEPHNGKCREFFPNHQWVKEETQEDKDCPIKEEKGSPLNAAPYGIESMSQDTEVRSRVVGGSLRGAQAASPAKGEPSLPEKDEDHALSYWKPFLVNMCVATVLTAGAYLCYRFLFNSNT
- EXPERIMENTAL_PROTOCOL: Binding affinity to PTPN1 (unknown origin) assessed as dissociation rate constant (Koff) by Bio-Layer Interferometric analysis
VALUE_TYPE: K

Query: K; subject: CCCCCCCCCCCCCCCC(=O)N[C@H](C(=O)N[C@@H](C)C(=O)N[C@@H](CCC(N)=O)C(=O)N[C@@H](CCC(=O)O)C(=O)N[C@@H](CC(C)C)C(=O)N[C@@H](CCCNC(=N)N)C(=O)N[C@@H](CCCNC(=N)N)C(=O)N[C@@H](C(=O)NCC(=O)N[C@@H](CC(=O)O)C(=O)N[C@@H](CCC(=O)O)C(=O)N[C@@H](Cc1ccccc1)C(=O)O)[C@@H](C)CC)[C@@H](C)CC 2.5 10^-5/s
